# METHOD_SUMMARY: chemical genetic growth profiling, strain panel (AID 1159580);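 note: tested at 20 µM; growth read once vehicle control cultures reached saturation at 30 °C; 1 = growth at the plate median or of vehicle wells; lower values mean less growth of the strain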
# RECORDED_CONDITIONS: S. cerevisiae deletion strains, growth OD, locus YNL128W, strain TEP1
Out of some 5,500 compounds screened, about 2,000 (36%) were called active. Inconclusive results (about 18%) are left out. Cut-off read from the data, not from the text of the source: active = normalized growth mostly below about 0.91 (no sharp cut-off); inconclusive = no clear call, values can overlap the other calls; inactive = mostly above about 0.92. This is one part of the list.
Possible outcomes: active, inactive

# COMPOUND, LABEL
records = [
    ("Clc1cccc(N2CCNCC2)c1", "inactive"),
    ("Cc1ccc(C)n1-c1ccc(C(=O)NNC(=O)c2ccc3nccnc3c2)cc1", "inactive"),
    ("CN(C)CCN(Cc1cccs1)c1ccccn1", "inactive"),
    ("CCCCCCN(CCCCCC)C(=O)Cc1c(-c2ccc(F)cc2)[nH]c2ccccc12", "active"),
    ("NC(Cc1cccc(-c2ccccc2CP(=O)(O)O)c1)C(=O)O (configuration not stated)", "inactive"),
    ("COc1ccc(C(=O)O)cc1OC", "inactive"),
    ("CN(C)CCN(Cc1ccccc1)c1ccccn1", "inactive"),
    ("COc1ccc(C(CN(C)C)C2(O)CCCCC2)cc1 (configuration not stated)", "inactive"),
    ("NCCS(=O)(=O)O", "inactive"),
    ("C/C=C(\\C)C(=O)O[C@H]1C[C@@H](OC(C)=O)[C@@]2(C(=O)OC)CO[C@@H]3C2[C@]12CO[C@](O)(C(=O)OC)[C@H]2[C@](C)(C12O[C@@]1(C)[C@H]1C[C@@H]2OC2OC=C[C@@]21O)[C@@H]3O (some centres not stated)", "inactive"),
    ("COc1cc(C(O)CO)ccc1O (configuration not stated)", "inactive"),
    ("NCCCS(=O)(=O)O", "inactive"),
]

---

# METHOD_SUMMARY: chemical genetic growth profiling, strain panel (AID 1159580);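 note: tested at 20 µM; growth read once vehicle control cultures reached saturation at 30 °C; 1 = growth at the plate median or of vehicle wells; lower values mean less growth of the strain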
# RECORDED_CONDITIONS: S. cerevisiae deletion strains, growth OD, locus YER155C, strain BEM2, stronger effect = lower value
Screen size: about 5,500 compounds; about 2,000 (36%) were called active. Roughly 18% stayed inconclusive and do not appear here. The list shows a part of the results.
REPORTED_ENDPOINT: normalized growth

# MOLECULE, REPORTED_MEASUREMENT
data = [
    ("COC(=O)/C=C/C(C)=C/C=C/C(C)=C/C=C/C=C(C)/C=C/C=C(C)/C=C/C(=O)O", 0.994),
    ("COc1cc2c(cc1OC)C(=O)c1ccc(OC)c(OC)c1OCC(=O)C2", 0.992),
    ("COc1ccc(-c2coc3cc(O)ccc3c2=O)c(OC)c1", 1.01),
    ("COc1ccc(-c2coc3cc(O)ccc3c2=O)cc1", 0.962),
    ("CNC(=O)O/N=C(\\C)SC", 1.01),
    ("COc1ccc(C(=O)CC(=O)O)c2c1C=CC(C)(C)O2", 0.983),
    ("NS(=O)(=O)c1cc2c(cc1Cl)NC=NS2(=O)=O", 1),
    ("COC(=O)[C@@H]1OC(=O)C2OC23[C@@]1(C)CCC1[C@]2(C)C(C[C@H](O)[C@]13C)C(C)(C)[C@H](OC(C)=O)C[C@@H]2OC(C)=O (some centres not stated)", 1),
    ("COc1ccc2c(c1)OC/C(=C\\c1ccc(OC)c(O)c1)C2=O", 0.301),
    ("CCN(CC)C(=O)N1CCN(C)CC1", 1.01),
    ("CN(C)CCN(Cc1ccccc1)c1ccccn1", 1),
    ("NCCC(O)C(=O)NC1CC(N)C(OC2OC(CN)C(O)C(O)C2N)C(OC2OC(CO)C(O)C2O)C1O (configuration not stated)", 0.993),
    ("COc1ccc(CN(CCN(C)C)c2ccccn2)cc1", 0.983),
    ("CC(=O)O[C@H]1C[C@@H](OC(C)=O)C(C)(C)C2CC(=O)[C@]3(C)C(CC[C@@]4(C)[C@H](C(=O)O)OC(=O)C5OC543)[C@]21C (some centres not stated)", 0.996),
    ("C=CCc1ccc(O)c(OC)c1", 0.93),
    ("COc1ccccc1-c1coc2cc(O)ccc2c1=O", 1.02),
    ("O=c1c(-c2ccc(O)cc2)coc2cc(O)ccc12", 0.992),
    ("C=CCc1ccc(OC(=O)c2ccccc2)c(OC)c1", 0.969),
    ("CCC1(O)CC(OC2CC(N(C)C)C(OC3CC(O)C(OC4CCC(=O)C(C)O4)C(C)O3)C(C)O2)c2c(cc3c(c2O)C(=O)c2c(O)cccc2C3=O)C1C(=O)OC (configuration not stated)", 1.01),
    ("COc1ccc(-c2coc3cc(OC)ccc3c2=O)cc1", 1.01),
    ("CN(C)CCN(Cc1cccs1)c1ccccn1", 1.01),
    ("COC(=O)c1cc(=O)c(O)c2c(O)c(O)ccc2c1", 0.922),
]
